Data origin: patent US20230134571A1

system.tested: HIV Env, isolate WITO4160.33 (HIV)
test.details: cell-based or functional assay

binder	IC80 (µg/ml) with constrains
ePGDM9 (antibody, V domains shown) VH: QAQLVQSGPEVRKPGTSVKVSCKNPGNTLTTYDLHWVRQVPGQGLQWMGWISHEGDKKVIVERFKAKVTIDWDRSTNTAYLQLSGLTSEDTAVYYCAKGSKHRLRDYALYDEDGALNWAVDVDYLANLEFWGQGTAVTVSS VL: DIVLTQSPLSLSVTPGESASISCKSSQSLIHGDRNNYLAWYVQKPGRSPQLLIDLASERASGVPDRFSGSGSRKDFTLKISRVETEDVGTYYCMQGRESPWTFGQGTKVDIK	0.009 µg/mL
